assay.details: Drug repurposing screens with cells derived from glioblastoma tumor samples (AID 1345199); note: % is set by controls: 0 for no effect and ±100 for the full control effect; nearly all actives have a fitted effect of over 40% in size
measurement.conditions: GBM patient neurospheres viability, ATP luminescence, 48 h; at 21.3 µM (top of the series); tumour line A
Inconclusive results are not listed. Where a SMILES comes first, the peptide text is derived from it. Bridges are numbered along the chain shown (N, C = ends). [ ]: non-standard residue; d: D form. The star is where a group is joined. X2 = CC[C@H](C)CCCCC(=O)*; Dab = NCC[C@H](N)C(=O)O
Hi! Just check whether activity, negative = cell killing is below -20%. Below gives met, equal or above gives not met.

1. CC(=O)Nc1c(I)c(C(=O)N[C@H]2C(O)O[C@H](CO)[C@@H](O)[C@@H]2O)c(I)c(N(C)C(C)=O)c1I (stereo partly specified) :: not met
2. Cc1ncc(C[n+]2csc(CCO)c2C)c(N)n1 :: not met
3. CCN1C(=O)NC(c2ccccc2)C1=O (stereo unspecified) :: not met
4. CC(=O)Oc1cc(C(F)(F)F)ccc1C(=O)O :: met
5. NC[C@H]1O[C@H](O[C@H]2[C@H](O)[C@@H](O[C@H]3O[C@H](CO)[C@@H](O)[C@H](N)[C@H]3O)[C@H](N)C[C@@H]2N)[C@H](O)[C@@H](O)[C@@H]1O :: met
6. CC[C@H](C)CCCCC(=O)N[C@@H](CCN)C(=O)N[C@H](C(=O)N[C@@H](CCN)C(=O)N[C@H]1CCNC(=O)[C@@H]([C@H](C)O)NC(=O)[C@H](CCN)NC(=O)[C@H](CCN)NC(=O)[C@H](CC(C)C)NC(=O)[C@@H](CC(C)C)NC(=O)[C@H](CCN)NC1=O)[C@@H](C)O (X2-[Dab]T[Dab][Dab][Dab][dL]L[Dab][Dab][dT]; lactam 4-C) :: not met
7. CCCC1C(=O)N2C(N(C)C)=Nc3ccc(C)cc3N2C1=O (stereo unspecified) :: met
8. CNCC(O)c1ccc(OC(=O)C(C)(C)C)c(OC(=O)C(C)(C)C)c1 (stereo unspecified) :: not met
9. CN1C(=O)OC(C)(C)C1=O :: not met
10. CN[C@@H]1[C@@H](O[C@H]2O[C@H](CO)[C@@H](N)[C@H](O)[C@H]2O)O[C@H]2C[C@@H](N)[C@@H](O[C@H]3[C@H](O)[C@@H](O)[C@H](N)C[C@@H]3N)O[C@@H]2[C@@H]1O :: not met

###

tgt: Peroxisome proliferator-activated receptor delta (Homo sapiens)
assay.details: qHTS assay for small molecule antagonists of peroxisome proliferator-activated receptor delta signaling (AID 588535)
measurement.conditions: HEK293T PPARd-UAS-bla, beta-lactamase FRET ratio, 18 h; series mostly up to 76.7 µM
Text: NIH Chemical Genomics Center [NCGC] U.S. Environmental Protection Agency [EPA] National Institutes of Environmental Health Sciences [NIEHS] National Toxicology Program [NTP] NCGC Assay Overview The Peroxisome proliferator-activated receptors (PPARs) are lipid-activated transcription factors of the nuclear receptor superfamily with three distinct subtypes namely PPAR alpha, PPAR delta (also called PPAR beta) and PPAR gamma. […]
Inconclusive results are not listed. Calls of active or inactive are those of the source. The call rests on the fitted dose curve; in most records, active means well fitted inhibition curve with a large enough effect in the signal ratio, with a control signal flat (not every such curve was filed as active); inconclusive means small, poorly fitted or top-dose-only effect, or effect the other way, or a change in a side signal; inactive means no such curve, though single readings can be large or run the other way; the % refers to the signal ratio.
property.measured: outcome

1) OCl :: inactive
2) CC1=CC(=O)NS(=O)(=O)O1 :: inactive
3) CO :: inactive
4) OB(O)O :: inactive
5) CN(CCO)CC(O)Cn1cnc2c1c(=O)n(C)c(=O)n2C (stereo not given) (tested in a mixture with another compound) :: inactive
6) CCCCCCCCCCCCCCCCCC(=O)OC[C@@H](O)[C@H]1OC[C@H](O)[C@H]1O :: inactive
7) Nc1nccs1 :: inactive
8) CC(C)[C@@H]1CC[C@@H](C)C[C@H]1O :: inactive
9) N[C@@H](Cc1cc(I)c(Oc2ccc(O)c(I)c2)c(I)c1)C(=O)O :: inactive
10) CC(C)CCCCCCc1ccc(O)cc1 :: inactive
11) Cc1ccc(S(=O)(=O)O)cc1C :: inactive
12) CCCCO :: inactive
13) Cc1ccc(S(=O)(=O)NCl)cc1 :: inactive
14) Oc1cccc(O)c1O :: inactive
15) CO[C@@H]1[C@H](OC(=O)/C=C/C=C/C=C/C=C/C(=O)O)CC[C@]2(CO2)[C@H]1[C@@]1(C)O[C@@H]1CC=C(C)C :: inactive
16) c1ccc2ccccc2c1 :: inactive
17) CC1=CCC2CC1C2(C)C (stereo not given) :: inactive
18) C[Si](C)(C)O[Si](C)(C)C :: inactive
19) Nc1ncnc2c1ncn2[C@H]1CC[C@@H](CO)O1 :: inactive
20) Cc1ncc[nH]1 :: inactive

###

System: CP315
assay.details: qHTS profiling for inhibitors of Plasmodium falciparum proliferation (AID 504749); note: nearly all actives have a fitted effect of over 60% in size
measurement.conditions: P. falciparum in erythrocytes, SYBR Green DNA, 72 h; series mostly up to 28.7 µM
Inconclusive results are not listed. Activity calls are given as the source filed them. Calls come from the whole dose curve; as a rule, active = well fitted inhibition curve with a large enough effect; inconclusive = small, poorly fitted or top-dose-only effect; inactive = flat fitted curve, though single readings scatter.
Labels: active, inactive

1) c1ccc2c(c1)Sc1ccccc1N2CCN1CCCC1 :: active
2) CN(C)c1ccc(C(=C2C=CC(=[N+](C)C)C=C2)c2c(O)c(S(=O)(=O)[O-])cc3cc(S(=O)(=O)O)ccc23)cc1 :: inactive
3) C=C(C)C1CC=C(C)CC1 (stereo not given) :: inactive
4) O=C(O)Cc1cc(I)c(Oc2ccc(O)c(I)c2)c(I)c1 :: inactive
5) CCCCC[C@H](O)/C=C/[C@@H]1[C@H]2C/C(=C/CCCC(=O)O)O[C@H]2C[C@H]1O :: inactive
6) S=C=Nc1ccc(N=C=S)cc1 :: inactive
7) CCN(CC)CCOc1ccc2nc(N(C)C)sc2c1 :: inactive
8) CC1CC(OC(=O)C(O)c2ccccc2)CC(C)(C)C1 (stereo not given) :: inactive
9) C[C@@](Cc1ccc(O)c(O)c1)(NN)C(=O)O :: inactive
10) C[C@H]1O[C@@H](O[C@H]2[C@@H](O)C[C@H](O[C@H]3[C@@H](O)C[C@H](O[C@H]4CC[C@@]5(C)[C@H](CC[C@@H]6[C@@H]5C[C@@H](O)[C@]5(C)[C@@H](C7=CC(=O)OC7)CC[C@]65O)C4)O[C@@H]3C)O[C@@H]2C)C[C@H](O)[C@@H]1O :: inactive

###

assay.details: qHTS profiling for inhibitors of Plasmodium falciparum proliferation (AID 504749); note: nearly all actives have a fitted effect of over 60% in size;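 for activity, negative = inhibition: 0% = DMSO vehicle and full inhibition = artemisinin control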
measurement.conditions: P. falciparum in erythrocytes, SYBR Green DNA, 72 h; at 28.7 µM (top of the series); parasite line B
Inconclusive results are not listed.
property.measured: activity, negative = inhibition (%)

1. FC(F)(F)COCC(F)(F)F :: -2.69
2. CCOc1ccc(S(=O)(=O)O)c2cccnc12 :: 6.17
3. O=C(O)C1=C(CSc2nnnn2CS(=O)(=O)O)CS[C@@H]2[C@H](NC(=O)[C@H](O)c3ccccc3)C(=O)N12 :: 1.69
4. C[Si](C)(C)O[Si](C)(C)C :: 10.8
5. CC(C)CCC[C@@H](C)[C@H]1CC[C@H]2[C@@H]3CC[C@@H]4C[C@H](O)CC[C@]4(C)[C@H]3CC[C@]12C :: 5.75
6. O[C@@H]([C@H](O)[C@H](O)CBr)[C@H](O)CBr :: 1.51
7. C[C@H](O)CN(C)C :: 3.53
8. O=C(O)c1cc(N=Nc2ccc(O)c(C(=O)O)c2)ccc1O :: 11.5
9. CC(C)O :: 13.2
10. CNC(=O)C[C@@H](N)C(=O)N[C@@H](C(=O)N[C@@H]1C(=O)N2[C@@H]1SC(C)(C)[C@@H]2C(=O)O)c1ccc(O)cc1 :: 15.8
11. CC1CCC(NC(=O)N(CCCl)N=O)CC1 (configuration not stated) :: 3.89
12. COc1ccc(-c2noc(CC(=O)O)c2-c2ccc(OC)cc2)cc1 :: 9.58

###

assay.details: Primary qHTS for inhibitors of nuclear receptor binding SET domain protein 2 (NSD2) in an RCH-ACV wild type WT cells (2C) (AID 1645877); note: nearly all actives have a fitted effect of over 70% in size
measurement.conditions: RCH-ACV (leukaemia line) NSD2 WT (2C) viability, CellTiter-Glo, 72 h; series mostly up to 44.9 µM
Inconclusive results are not listed. Calls of active or inactive are those of the source. The call rests on the fitted dose curve; in most records, active means well fitted inhibition curve with a large enough effect; inconclusive means small, poorly fitted or top-dose-only effect; inactive means no such curve, though single readings can be large or run the other way.
Outcomes: active, inactive

1. CO[C@H]1C[C@@H]2CC[C@@H](C)[C@@](O)(O2)C(=O)C(=O)N2CCCC[C@H]2C(=O)O[C@H]([C@H](C)C[C@@H]2CC[C@@H](OC(=O)C(C)(CO)CO)[C@H](OC)C2)CC(=O)[C@H](C)/C=C(\C)[C@@H](O)[C@@H](OC)C(=O)[C@H](C)C[C@H](C)/C=C/C=C/C=C/1C :: active
2. COc1ccc([C@@H]2CC(=O)c3c(O)cc(O[C@@H]4O[C@H](CO[C@@H]5O[C@@H](C)[C@H](O)[C@@H](O)[C@H]5O)[C@@H](O)[C@H](O)[C@H]4O)cc3O2)cc1O :: inactive
